Recorded values, source ChEMBL document CHEMBL3797033.

target: Human immunodeficiency virus type 1 integrase (Human immunodeficiency virus 1, UniProt Q7ZJM1); assay: Inhibition of HIV1 integrase using DIG/biotin-tagged annealed U5 LTR sequence oligonucleotides as substrate after 2 hrs by 3-processing strand transfer combined assay
Sequence (Q7ZJM1 whole entry): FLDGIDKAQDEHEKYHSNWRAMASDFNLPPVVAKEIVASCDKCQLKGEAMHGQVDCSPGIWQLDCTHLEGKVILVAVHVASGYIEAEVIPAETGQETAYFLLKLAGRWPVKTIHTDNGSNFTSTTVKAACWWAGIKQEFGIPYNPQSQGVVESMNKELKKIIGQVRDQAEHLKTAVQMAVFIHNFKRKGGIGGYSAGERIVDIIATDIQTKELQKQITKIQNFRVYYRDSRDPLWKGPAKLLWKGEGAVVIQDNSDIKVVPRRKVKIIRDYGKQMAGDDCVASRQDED
pIC50: −log10 of the molar value.
Assay Endpoint: pIC50

(1) O=C(O)/C=C/c1ccc2c(c1)CC(=O)N2Cc1ccc2c(c1C(=O)O)OCO2
(2) O=C(O)c1c(CN2C(=O)Cc3ccccc32)ccc2c1OCO2
// pick larger pIC50 from pair: 1 vs 2 Please indicate the selected item by its label.
1

====

biological target: UniProtKB Q9YQ12; assay: Inhibition of HIV1 protease after 48 hrs by micro-titer plate assay
Sequence (Q9YQ12 whole entry): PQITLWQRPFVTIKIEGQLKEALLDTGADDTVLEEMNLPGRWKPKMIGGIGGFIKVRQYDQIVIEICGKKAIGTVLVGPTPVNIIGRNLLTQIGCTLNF
Ki listing for selected molecules.
Express the result in nM but write the number alone.

Specify measured Ki for COc1ccc(S(=O)(=O)N(CC(C)C)[C@@H](O)[C@H](Cc2ccccc2)n2cc(CNC(=O)c3ccc(CNC(=O)OC(C)(C)C)cc3)nn2)cc1 .
4

Specify measured Ki for Cc1ccc(Cl)cc1N1CCN(Cc2nnn([C@@H](Cc3ccccc3)[C@H](Cc3ccccc3)NC(=O)OC3CCCC3)c2CO)CC1 .
8

Specify measured Ki for COc1ccc(S(=O)(=O)N(CC(C)C)[C@@H](O)[C@H](Cc2ccccc2)n2cc(COC(=O)N[C@H]3Cc4ccccc4[C@H]3O)nn2)cc1 .
1.7
